# STUDY_TARGET: human BACE-1 (Homo sapiens)
# Sequence (P56817 46-501): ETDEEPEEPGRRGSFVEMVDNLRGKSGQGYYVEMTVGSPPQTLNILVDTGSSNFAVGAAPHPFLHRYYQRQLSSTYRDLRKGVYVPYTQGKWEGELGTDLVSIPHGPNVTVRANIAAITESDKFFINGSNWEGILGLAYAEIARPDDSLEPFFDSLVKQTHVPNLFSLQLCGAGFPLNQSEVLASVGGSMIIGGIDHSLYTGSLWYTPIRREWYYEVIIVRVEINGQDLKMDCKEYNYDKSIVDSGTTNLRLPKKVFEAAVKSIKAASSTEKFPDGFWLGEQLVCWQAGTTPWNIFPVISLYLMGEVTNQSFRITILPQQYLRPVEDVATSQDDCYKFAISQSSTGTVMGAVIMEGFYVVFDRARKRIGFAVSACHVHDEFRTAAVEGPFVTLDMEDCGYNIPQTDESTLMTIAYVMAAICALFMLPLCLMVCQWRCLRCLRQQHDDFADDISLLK
# ASSAY_COMMENT: In Vitro BACE Assay (CEREP, fluorogenic substrate)
# Type: biochemical
# APPLIED_CONDITIONS: 10 μM test compound; recombinant enzyme, pH 4.5
ASSAY_READOUT: inhibition at 10 µM (%)

{"columns": ["CHEMICAL_SMILES", "MEASUREMENT"],
 "data": [
  ["Nc1nc2ccc(Sc3cccc(CNCc4c(F)cccc4F)c3)cc2cc1CC1CCOCC1", 97],
  ["Nc1nc2ccc(Sc3cccc(CNCc4ccccn4)c3)cc2cc1CC1CCOCC1", 93],
  ["Cc1cc(C)c(NCc2cccc(Sc3ccc4nc(N)c(CC5CCOCC5)cc4c3)c2)c(C)c1", 94],
  ["CCOc1ccccc1CNCc1cccc(Sc2ccc3nc(N)c(CC4CCOCC4)cc3c2)c1", 95],
  ["Cc1cc(C)c(CNCc2cccc(Oc3ccc4nc(N)c(CC5CCOCC5)cc4c3)c2)c(C)c1", 98],
  ["COc1ccc(CNCc2cccc(Sc3ccc4nc(N)c(CC5CCOCC5)cc4c3)c2)c(OC)c1", 90],
  ["Nc1nc2ccc(Sc3cccc(CNCc4cc(F)ccc4F)c3)cc2cc1CC1CCOCC1", 95],
  ["CCOc1ccccc1CNCc1cccc(Sc2cc3cc(CC4CCOCC4)c(N)nc3cc2F)c1", 95],
  ["Nc1nc2ccc(Sc3cccc(CCNCc4ccccn4)c3)cc2cc1CC1CCOCC1", 91],
  ["Cc1ccc(CNCc2cccc(Sc3ccc4nc(N)c(CC5CCOCC5)cc4c3)c2)c(C)c1", 98],
  ["Nc1nc2ccc(Sc3cccc(CNCc4ccc(Cl)cc4Cl)c3)cc2cc1CC1CCOCC1", 98],
  ["Cc1ccc(C)c(COCc2cccc(Sc3ccc4nc(N)c(CC5CCOCC5)cc4c3)c2)c1", 93],
  ["Cc1cc(C)c(CNCc2cccc(Oc3ccc4nc(N)c(CCC5CCOCC5)cc4c3)c2)c(C)c1", 74],
  ["Cc1cc(C)c(CNCc2cccc(Sc3ccc4nc(N)c(CC5CCOCC5)cc4c3)c2)c(C)c1", 96],
  ["Nc1nc2ccc(Sc3cccc(CNCc4ccc(C(F)(F)F)cc4)c3)cc2cc1CC1CCOCC1", 90]
]}

These measurements were taken from patent US8076358B2.
